Ref: paper doi:10.1101/2025.05.22.655678

System tested: T1, VchI (Vibrio cholerae)
T1 chain: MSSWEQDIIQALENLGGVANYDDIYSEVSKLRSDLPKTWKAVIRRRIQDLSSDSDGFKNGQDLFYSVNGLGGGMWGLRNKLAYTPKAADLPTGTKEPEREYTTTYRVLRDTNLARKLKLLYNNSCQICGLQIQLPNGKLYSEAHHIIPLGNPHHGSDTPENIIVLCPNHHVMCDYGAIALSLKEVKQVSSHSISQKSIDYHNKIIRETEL
Protocol description: EMSA

{"Binder": "GCCAG (dsDNA, N6-methyladenine in any context (M.EcoGII)) DNA 1: GGGCTACGTCTTGCTGGCGTTCGCGACGCCAGGCTGGATGGCCTTCCCCATTATGATTCT DNA 2: AGAATCATAATGGGGAAGGCCATCCAGCCTGGCGTCGCGAACGCCAGCAAGACGTAGCCC", "binding result": "no binding"}
{"Binder": "59bp-GAG (dsDNA, N6-methyladenine at A of GAG (position 30, printed M6A); legend says M.EcoGII-methylated) DNA 1: TTTTTTTTTTTTTTTTTTTTTTTTTTTTGAGTTTTTTTTTTTTTTTTTTTTTTTTTTTT DNA 2: AAAAAAAAAAAAAAAAAAAAAAAAAAAACTCAAAAAAAAAAAAAAAAAAAAAAAAAAAA", "binding result": "binds"}
{"Binder": "ss-59nt-GAG (ssDNA, N6-methyladenine at A of GAG (position 30)) DNA: TTTTTTTTTTTTTTTTTTTTTTTTTTTTGAGTTTTTTTTTTTTTTTTTTTTTTTTTTTT", "binding result": "no binding"}
{"Binder": "GAGAG (dsDNA, N6-methyladenine in any context (M.EcoGII)) DNA 1: GGGCTACGTCTTGCTGGCGTTCGCGACGAGAGGCTGGATGGCCTTCCCCATTATGATTCT DNA 2: AGAATCATAATGGGGAAGGCCATCCAGCCTCTCGTCGCGAACGCCAGCAAGACGTAGCCC", "binding result": "binds"}
{"Binder": "60bp-7-V (dsDNA, N6-methyladenine in any context (M.EcoGII)) DNA 1: CGGCGATTTATGCCGCCTCGTTTTTCACATGGAACGGGTTGGCATGGATTGTAGGCGCCG DNA 2: CGGCGCCTACAATCCATGCCAACCCGTTCCATGTGAAAAACGAGGCGGCATAAATCGCCG", "binding result": "binds"}
{"Binder": "GCGAA (dsDNA, N6-methyladenine in any context (M.EcoGII)) DNA 1: GGGCTACGTCTTGCTGGCGTTCGCGACGCGAAGCTGGATGGCCTTCCCCATTATGATTCT DNA 2: AGAATCATAATGGGGAAGGCCATCCAGCTTCGCGTCGCGAACGCCAGCAAGACGTAGCCC", "binding result": "no binding"}
{"Binder": "TCGAG (dsDNA, N6-methyladenine in any context (M.EcoGII)) DNA 1: GGGCTACGTCTTGCTGGCGTTCGCGACTCGAGGCTGGATGGCCTTCCCCATTATGATTCT DNA 2: AGAATCATAATGGGGAAGGCCATCCAGCCTCGAGTCGCGAACGCCAGCAAGACGTAGCCC", "binding result": "binds"}
{"Binder": "GCAAG (dsDNA, N6-methyladenine in any context (M.EcoGII)) DNA 1: GGGCTACGTCTTGCTGGCGTTCGCGACGCAAGGCTGGATGGCCTTCCCCATTATGATTCT DNA 2: AGAATCATAATGGGGAAGGCCATCCAGCCTTGCGTCGCGAACGCCAGCAAGACGTAGCCC", "binding result": "no binding"}
{"Binder": "GCGAT (dsDNA, N6-methyladenine in any context (M.EcoGII)) DNA 1: GGGCTACGTCTTGCTGGCGTTCGCGACGCGATGCTGGATGGCCTTCCCCATTATGATTCT DNA 2: AGAATCATAATGGGGAAGGCCATCCAGCATCGCGTCGCGAACGCCAGCAAGACGTAGCCC", "binding result": "no binding"}
{"Binder": "GTGAG (dsDNA, N6-methyladenine in any context (M.EcoGII)) DNA 1: GGGCTACGTCTTGCTGGCGTTCGCGACGTGAGGCTGGATGGCCTTCCCCATTATGATTCT DNA 2: AGAATCATAATGGGGAAGGCCATCCAGCCTCACGTCGCGAACGCCAGCAAGACGTAGCCC", "binding result": "binds"}
{"Binder": "CCGAG (dsDNA, N6-methyladenine in any context (M.EcoGII)) DNA 1: GGGCTACGTCTTGCTGGCGTTCGCGACCCGAGGCTGGATGGCCTTCCCCATTATGATTCT DNA 2: AGAATCATAATGGGGAAGGCCATCCAGCCTCGGGTCGCGAACGCCAGCAAGACGTAGCCC", "binding result": "binds"}
{"Binder": "GCTAG (dsDNA, N6-methyladenine in any context (M.EcoGII)) DNA 1: GGGCTACGTCTTGCTGGCGTTCGCGACGCTAGGCTGGATGGCCTTCCCCATTATGATTCT DNA 2: AGAATCATAATGGGGAAGGCCATCCAGCCTAGCGTCGCGAACGCCAGCAAGACGTAGCCC", "binding result": "no binding"}
{"Binder": "GCGAC (dsDNA, N6-methyladenine in any context (M.EcoGII)) DNA 1: GGGCTACGTCTTGCTGGCGTTCGCGACGCGACGCTGGATGGCCTTCCCCATTATGATTCT DNA 2: AGAATCATAATGGGGAAGGCCATCCAGCGTCGCGTCGCGAACGCCAGCAAGACGTAGCCC", "binding result": "no binding"}
{"Binder": "GGGAG (dsDNA, N6-methyladenine in any context (M.EcoGII)) DNA 1: GGGCTACGTCTTGCTGGCGTTCGCGACGGGAGGCTGGATGGCCTTCCCCATTATGATTCT DNA 2: AGAATCATAATGGGGAAGGCCATCCAGCCTCCCGTCGCGAACGCCAGCAAGACGTAGCCC", "binding result": "binds"}
{"Binder": "60bp-2-V (dsDNA, N6-methyladenine in any context (M.EcoGII)) DNA 1: GGGCTACGTCTTGCTGGCGTTCGCGACTTTTTGCTGGATGGCCTTCCCCATTATGATTCT DNA 2: AGAATCATAATGGGGAAGGCCATCCAGCAAAAAGTCGCGAACGCCAGCAAGACGTAGCCC", "binding result": "no binding"}
